# Study System: Mitogen-activated protein kinase 3 (Homo sapiens)
# Sequence (P27361 whole entry): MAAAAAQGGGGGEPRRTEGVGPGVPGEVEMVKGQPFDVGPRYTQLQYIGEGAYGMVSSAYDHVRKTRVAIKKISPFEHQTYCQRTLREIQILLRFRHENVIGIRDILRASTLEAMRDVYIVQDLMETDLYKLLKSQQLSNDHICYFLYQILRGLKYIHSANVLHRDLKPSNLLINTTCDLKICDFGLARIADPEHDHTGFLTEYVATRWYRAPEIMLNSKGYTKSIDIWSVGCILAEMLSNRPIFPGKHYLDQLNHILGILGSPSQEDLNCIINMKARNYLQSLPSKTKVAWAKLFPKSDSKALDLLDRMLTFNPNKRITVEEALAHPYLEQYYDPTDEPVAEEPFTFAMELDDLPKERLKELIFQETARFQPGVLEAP
# Test: DRUGMATRIX: Protein Serine/Threonine Kinase, ERK1 enzyme inhibition (substrate: Myelin Basic Protein)
# Set-up: species or system Escherichia coli
# Measurement Conditions: Not Active = under 50% inhibition at 10 µM
Result Type: IC50

Worked examples follow.
- CC(O)(P(=O)(O)O)P(=O)(O)O [ETIDRONIC ACID]: Not Active
- COc1ccc2c(c1OC)C(=O)O[C@@H]2[C@H]1c2c(cc3c(c2OC)OCO3)CCN1C [NOSCAPINE]: Not Active
- CC1=NN(c2ccccc2)C(=O)C1 [EDARAVONE]: Not Active
- CC(=O)OCC(=O)[C@@]1(O)CC[C@H]2[C@@H]3CCC4=CC(=O)CC[C@]4(C)[C@@]3(F)[C@@H](O)C[C@@]21C [FLUDROCORTISONE ACETATE]: Not Active

Query: What value of IC50 has been reported for the following compound? NC(=O)N1c2ccccc2CC(=O)c2ccccc21 [OXCARBAZEPINE]
Response: Not Active

Query: What value of IC50 has been reported for the following compound? NCCCNCCSP(=O)(O)O [AMIFOSTINE]
Response: Not Active

Query: What value of IC50 has been reported for the following compound? CN1C(=O)CN=C(c2ccccc2)c2cc([N+](=O)[O-])ccc21 [NIMETAZEPAM]
Response: Not Active

Query: What value of IC50 has been reported for the following compound? O=C(O)CCNC(=O)c1ccc(/N=N/c2ccc(O)c(C(=O)O)c2)cc1 [BALSALAZIDE]
Response: Not Active

Query: What value of IC50 has been reported for the following compound? O=C(O)P(=O)(O)O [FOSCARNET]
Response: Not Active

Query: What value of IC50 has been reported for the following compound? CCCCCCCCNC(C)C(O)c1ccc(SC(C)C)cc1 (centres undefined) [SULOCTIDIL]
Response: Not Active

Query: What value of IC50 has been reported for the following compound? COC(=O)[C@H]1[C@H]2C[C@@H]3c4[nH]c5cc(OC)ccc5c4CCN3C[C@H]2C[C@@H](OC(=O)c2cc(OC)c(OC)c(OC)c2)[C@@H]1OC [RESERPINE]
Response: Not Active

Query: What value of IC50 has been reported for the following compound? C[C@@H]1O[C@@H](O[C@H]2C[C@@H](O)[C@]3(CO)[C@H]4[C@H](O)C[C@]5(C)[C@@H](C6=CC(=O)OC6)CC[C@]5(O)[C@@H]4CC[C@]3(O)C2)[C@H](O)[C@H](O)[C@H]1O [OUABAIN]
Response: Not Active

Query: What value of IC50 has been reported for the following compound? NC(=O)c1cccnc1 [NIACINAMIDE]
Response: Not Active

Query: What value of IC50 has been reported for the following compound? CC(C)NC[C@@H](O)COc1cccc2ccccc12 [DEXPROPRANOLOL]
Response: Not Active

Query: What value of IC50 has been reported for the following compound? C[C@]12CC[C@H]3[C@@H](CCC4=CC(=O)CC[C@@H]43)[C@@H]1CC[C@@H]2O [NANDROLONE]
Response: Not Active

Query: What value of IC50 has been reported for the following compound? C[C@H]1COc2c(N3CCN(C)CC3)c(F)cc3c(=O)c(C(=O)O)cn1c23.C[C@H]1COc2c(N3CCN(C)CC3)c(F)cc3c(=O)c(C(=O)O)cn1c23.O [LEVOFLOXACIN]
Response: Not Active

Query: What value of IC50 has been reported for the following compound? Cc1ccc(C(=O)c2ccc(CC(=O)O)n2C)cc1 [TOLMETIN]
Response: Not Active

Query: What value of IC50 has been reported for the following compound? CCN(CC)CCCC(C)Nc1c2ccc(Cl)cc2nc2ccc(OC)cc12 (centres undefined) [QUINACRINE]
Response: Not Active

Query: What value of IC50 has been reported for the following compound? CCN(C(C)=O)c1cccc(-c2ccnc3c(C#N)cnn23)c1 [ZALEPLON]
Response: Not Active

Query: What value of IC50 has been reported for the following compound? C[S+](C)[O-] [DIMETHYL SULFOXIDE]
Response: Not Active

Query: What value of IC50 has been reported for the following compound? CC(C)(C(=O)O)c1ccc(C(O)CCCN2CCC(C(O)(c3ccccc3)c3ccccc3)CC2)cc1 (centres undefined) [FEXOFENADINE]
Response: Not Active

Query: What value of IC50 has been reported for the following compound? CCCNC(=O)NS(=O)(=O)c1ccc(Cl)cc1 [CHLORPROPAMIDE]
Response: Not Active
